reportedMetric: melting point (°C)

(P) Nc1ccccc1NC(=O)c1cnc(N2CCC(CNC(/C=C/c3ccccc3)CO)CC2)nc1 (centres unmarked)
(Q) CC(=O)N(CC1CCN(c2ncc(C(=O)NO)cn2)CC1)C(C)/C=C/c1ccccc1 (centres unmarked)
Qu. Could you determine which record has the numerically smaller melting point? Candidates: P and Q Identify your pick by its label.
Ans. Q
(Q: 100 °C, P: 178 °C)

(1) O=C(NO)c1cnc(N2CCC(NC(/C=C/c3ccccc3)CO)CC2)nc1 (centres unmarked) (hydrate or solvate)
(2) O=C(NO)c1cnc(N2CCC(CNC(/C=C/c3ccccc3)CO)CC2)nc1 (centres unmarked) (hydrate or solvate)
Qu. Consider 1 and 2 . Which of these has its melting point at a higher number? Identify your pick by its label.
Ans. 2
